Hey, just so you know, these numbers are from paper PMC12543283.

TEST SUMMARY: Electronic tongue analysis (Taste-Sensing System SA 402B)
Set-up: unit not given here
RECORDED CONDITIONS: sensor CT0, peptide 0.1 mg/mL, reference solution 30 mM KCl + 0.3 mM tartaric acid as baseline, detection threshold -6, room temperature, four replicates, first measurement excluded
Ends that are not written are not given here.
MEASUREMENT KIND: Salty

## Input Using the record for KGYEAV [TaPep5] , state its measured Salty.
## Output -18.14

## Input Using the record for AQDDLP [TaPep20] , state its measured Salty.
## Output -21.79

## Input Using the record for PPLENT [TaPep39] , state its measured Salty.
## Output -18.68

## Input Using the record for TAEQVA [TaPep33] , state its measured Salty.
## Output -19.69

## Input Using the record for VARLEA [TaPep9] , state its measured Salty.
## Output -18.92

## Input Using the record for YAGNAP [TaPep10] , state its measured Salty.
## Output -20.44

## Input Using the record for EPKVLV [TaPep54] , state its measured Salty.
## Output -20.20

## Input Using the record for DAELDK [TaPep34] , state its measured Salty.
## Output -17.51

## Input Using the record for DFKEELPK [TaPep42] , state its measured Salty.
## Output -15.26

* * *

Test system: human umbilical vein endothelial cells (HUVEC)
Ends that are not written are not given here.
The threshold is 100. Values of Cell viability, HUVEC, Data2 beneath it are tagged TRUE; values meeting or exceeding it are tagged FALSE.

## Input API: query returns whether the substance falls strictly under 100 in Cell viability, HUVEC, Data2. Query: STGTIR [TaPep51]
## Output TRUE

## Input API: query returns whether the substance falls strictly under 100 in Cell viability, HUVEC, Data2. Query: AQSSLS [TaPep40]
## Output FALSE

## Input API: query returns whether the substance falls strictly under 100 in Cell viability, HUVEC, Data2. Query: YDGTPLN [TaPep11]
## Output FALSE

## Input API: query returns whether the substance falls strictly under 100 in Cell viability, HUVEC, Data2. Query: KGYEAV [TaPep5]
## Output FALSE

## Input API: query returns whether the substance falls strictly under 100 in Cell viability, HUVEC, Data2. Query: PPLENT [TaPep39]
## Output FALSE

## Input API: query returns whether the substance falls strictly under 100 in Cell viability, HUVEC, Data2. Query: LQPSLEH [TaPep59]
## Output FALSE

## Input API: query returns whether the substance falls strictly under 100 in Cell viability, HUVEC, Data2. Query: VAEDLL [TaPep8]
## Output TRUE

## Input API: query returns whether the substance falls strictly under 100 in Cell viability, HUVEC, Data2. Query: DQKVLA [TaPep3]
## Output TRUE

## Input API: query returns whether the substance falls strictly under 100 in Cell viability, HUVEC, Data2. Query: LGDDLVK [TaPep19]
## Output FALSE

* * *

Test system: human bronchial epithelial cells (BEAS-2B)
Ends that are not written are not given here.
MEASUREMENT KIND: Average cell viability, BEAS-2B
I only need the number, thanks.

## Input Using the record for SLEYLP [TaPep35] , state its measured Average cell viability, BEAS-2B.
## Output 109.54

## Input Using the record for LWGPVT [TaPep72] , state its measured Average cell viability, BEAS-2B.
## Output 100.50

## Input Using the record for HIDELDE [TaPep22] , state its measured Average cell viability, BEAS-2B.
## Output 111.67

## Input Using the record for PPLENT [TaPep39] , state its measured Average cell viability, BEAS-2B.
## Output 115.22

## Input Using the record for EEVPITD [TaPep46] , state its measured Average cell viability, BEAS-2B.
## Output 111.37

## Input Using the record for LGDDLVK [TaPep19] , state its measured Average cell viability, BEAS-2B.
## Output 111.70

## Input Using the record for AEDNSL [TaPep43] , state its measured Average cell viability, BEAS-2B.
## Output 108.94

## Input Using the record for NNDDEES [TaPep50] , state its measured Average cell viability, BEAS-2B.
## Output 104.39

## Input Using the record for TIDDELR [TaPep26] , state its measured Average cell viability, BEAS-2B.
## Output 102.16

## Input Using the record for EQGEQN [TaPep15] , state its measured Average cell viability, BEAS-2B.
## Output 103.09

## Input Using the record for KNDESVD [TaPep48] , state its measured Average cell viability, BEAS-2B.
## Output 98.21

## Input Using the record for VPDELN [TaPep23] , state its measured Average cell viability, BEAS-2B.
## Output 102.53

## Input Using the record for TAEQVA [TaPep33] , state its measured Average cell viability, BEAS-2B.
## Output 98.57

## Input Using the record for DQKVLA [TaPep3] , state its measured Average cell viability, BEAS-2B.
## Output 108.77

## Input Using the record for YDGTPLN [TaPep11] , state its measured Average cell viability, BEAS-2B.
## Output 102.96

## Input Using the record for TQEVVN [TaPep25] , state its measured Average cell viability, BEAS-2B.
## Output 110.07

## Input Using the record for APEELDA [TaPep36] , state its measured Average cell viability, BEAS-2B.
## Output 102.92

## Input Using the record for AKDEKEL [TaPep1] , state its measured Average cell viability, BEAS-2B.
## Output 108.54

## Input Using the record for EDGPHGD [TaPep45] , state its measured Average cell viability, BEAS-2B.
## Output 94.75

## Input Using the record for AQSSLS [TaPep40] , state its measured Average cell viability, BEAS-2B.
## Output 101.16

## Input Using the record for KADGNR [TaPep4] , state its measured Average cell viability, BEAS-2B.
## Output 96.81

## Input Using the record for EPKVLV [TaPep54] , state its measured Average cell viability, BEAS-2B.
## Output 102.43

## Input Using the record for NGDDEEG [TaPep7] , state its measured Average cell viability, BEAS-2B.
## Output 102.56
